Here the recorded Tm shift relative to glycine control is given for each entry.
# System: Glutamate receptor ionotropic, NMDA 3A (GRIN3A) ligand-binding domain
# ASSAY_COMMENT: binders of NR3A ligand-binding domain, primary screen, biophysical, differential scanning fluorimetry, uHTS (AID 1259313)
# PROTOCOL_CONDITIONS: NR3A LBD differential scanning fluorimetry, at 25 µM, stronger effect = higher value, 0% = protein alone, 100% = glycine-bound protein
In all, about 340,000 compounds went through this assay and about 8,500 (2.5%) were called active. This is one part of a sample in which actives are shown more often than they occur.

COMPOUND	UNIT	Tm shift relative to glycine control
CCCCCNC(=O)c1cccnc1SCC(=O)Nc1ccccc1OC	%	8.62
C#CCOCCOCCOCCNc1nc(N2CCN(C(=O)CCCCCCCCCCNC(=O)[C@H](CCCCN)n3cc(C)nn3)CC2)nc(N2CCN(C(=O)CCCCCCCCCCNC(=O)[C@H](CO)n3cc(CCCSC)nn3)CC2)n1	%	24.7
O=[N+]([O-])c1ccccc1SNc1ccccn1	%	1.04
Cn1c(Cc2cccc3ccccc23)nnc1SCC(=O)N1CCN(c2cccc(Cl)c2)CC1	%	5.43
O=c1c2ccccc2nc2n1C(CSc1ccc(F)cc1)CN2 (stereo unspecified)	%	-3.8
COc1ccc(F)c(-c2nc(CN3CCC(c4ccccc4)CC3)c(C)o2)c1	%	-0.88
C#CCOCCOCCOCCNc1nc(N2CCN(C(=O)CCCCCCCCCCNC(=O)Cn3cc(CCCCCN)nn3)CC2)nc(N2CCN(C(=O)CCCCCCCCCCNC(=O)[C@H](CO)n3cc(CCCSC)nn3)CC2)n1	%	14.2
COc1cc(/C=C/C(=O)OCC(=O)NC2CC2)cc(OC)c1OC	%	3.83
O=C(COC(=O)c1ccc2ncsc2c1)Nc1ccc(Cl)cc1	%	-0.85
COc1ccc(C(=O)N2CCC(C(=O)Nc3cccc(C)c3)CC2)cc1OC	%	-0.09
C/C(N)=C(/C#N)C(=O)COC(=O)CNS(=O)(=O)c1ccc(C)cc1	%	-0.65
O=c1c2ccccc2nc2n1C(CSCc1ccccc1)CS2 (stereo unspecified)	%	-1.4
Cc1ccc(C)c(OCc2cc(C(=O)N3CCN(c4cnccn4)CC3)no2)c1	%	4
COc1ccc2[nH]c3c(c2c1)CCN1C(=O)C(CC(=O)NCCCN(C)C)C[C@H](C(=O)N2CCOCC2)[C@@]31CCC1CCCC1 (stereo partly specified)	%	0.34
C#CCOCCOCCOCCNc1nc(N2CCN(C(=O)Cn3cc(CCCCN)nn3)CC2)nc(N2CCN(C(=O)[C@H](CCCCN)n3cc(CCC(=O)O)nn3)CC2)n1	%	1.78
COc1ccc(CN2CCN(Cc3ccc(OC)c(OC)c3OC)CC2)cc1	%	-0.74

###

# Tested on: Glutamate receptor ionotropic, NMDA 3A (GRIN3A) ligand-binding domain
# ASSAY_COMMENT: binders of NR3A ligand-binding domain, primary screen, biophysical, differential scanning fluorimetry, uHTS (AID 1259313)
# PROTOCOL_CONDITIONS: NR3A LBD differential scanning fluorimetry, at 25 µM, 0% = protein alone, 100% = glycine-bound protein
The campaign covered roughly 340,000 compounds. About 8,500 (2.5%) were called active.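 How the source made its calls: active means melting temperature shift of at least 10% of the positive control shift, at one fixed dose; inactive means the rest.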 The sample as a whole holds a higher share of actives than the screen did.
Labels: t (active), f (inactive)

> print(dat)
                                   compound  answer.label
1  CC(=O)NCC(O)c1ccc([N+](=O)[O-])cc1 (stereo not drawn)             t
2  O=C(O)CC(Cc1ccccc1)C(=O)Nc1ccc([N+](=O)[O-])cc1 (stereo not drawn)             f
3  CC1(C)Cc2c(sc(NC(=O)C(=O)N3CCOCC3)c2C#N)CO1             f
4  COc1ccc(CCNC(=O)CN2C(=O)CCSc3ccccc32)c(OC)c1             f
5  O=C(CC1C(=O)NCCN1C(=O)c1ccc([N+](=O)[O-])cc1)Nc1cccc(Cl)c1 (stereo not drawn)             f
6  C/C(N)=C(/C#N)C(=O)COC(=O)c1cc(-c2ccc(C)cc2)nc2ccccc12             f
7      Cc1cc(NCc2ccco2)n2c(nc3ccccc32)c1C#N             t
8  CC(C)c1cc(NCc2ccccn2)n2c(nc3ccccc32)c1C#N             f

All values here come from PubChem BioAssay AID1259313.
